Listed molecules paired with reported Dmax
target: IRAK4 (Homo sapiens, UniProt Q9NWZ3); construct: endogenous in cells; host or cells: Karpas299; test: IRAK4 Degradation Assay (Karpas299, HTRF/TR-FRET); type: cell-based; conditions: Karpas-299 cells, 5 h treatment; maximum percentage of degradation; read-out: IRAK4 in Karpas-299 (5 h) Dmax (%)
Sequence (Q9NWZ3 whole entry): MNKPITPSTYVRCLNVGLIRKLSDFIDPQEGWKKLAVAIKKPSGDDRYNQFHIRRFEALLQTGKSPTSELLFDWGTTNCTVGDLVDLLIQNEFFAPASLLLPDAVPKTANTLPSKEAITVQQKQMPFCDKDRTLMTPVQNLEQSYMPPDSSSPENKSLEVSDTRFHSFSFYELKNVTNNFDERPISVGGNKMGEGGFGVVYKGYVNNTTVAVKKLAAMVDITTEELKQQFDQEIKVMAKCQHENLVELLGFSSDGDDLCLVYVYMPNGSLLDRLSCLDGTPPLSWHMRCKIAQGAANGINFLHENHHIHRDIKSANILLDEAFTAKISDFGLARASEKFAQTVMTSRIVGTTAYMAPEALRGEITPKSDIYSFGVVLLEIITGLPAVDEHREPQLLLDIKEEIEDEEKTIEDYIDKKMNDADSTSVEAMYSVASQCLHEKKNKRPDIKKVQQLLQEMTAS

{"molecule": "CC(C)(O)c1cc2nn(C3CCN(C4CCN(C(=O)C5CN(c6cc(F)c([C@H]7CCC(=O)NC7=O)c(F)c6)C5)CC4)CC3)cc2cc1NC(=O)c1cccc(C(F)(F)F)n1", "unit_tag": "%", "Dmax": 90}
{"molecule": "CC(C)(O)c1cc2nc(C3CCN(C4CN(C(=O)[C@@H]5CCN(c6cc(F)c([C@H]7CCC(=O)NC7=O)c(F)c6)C5)C4)CC3)cn2cc1NC(=O)c1cccc(C(F)(F)F)n1", "unit_tag": "%", "Dmax": 78}
{"molecule": "CC(C)(O)c1cc2nn([C@H]3CC[C@H](N4CCN(CCNc5cc(F)c(C6CCC(=O)NC6=O)c(F)c5)CC4)CC3)cc2cc1NC(=O)c1ccc2cc(C#N)cnn12 (stereo partly shown)", "unit_tag": "%", "Dmax": 93}
{"molecule": "COc1cc(N2CC(C(=O)N3CCN([C@H]4CC[C@H](n5cc6cc(NC(=O)c7ccc8cc(C#N)cnn78)c(C(C)(C)O)cc6n5)CC4)CC3)C2)cc(F)c1N1CCC(=O)NC1=O", "unit_tag": "%", "Dmax": 97}
{"molecule": "COC[C@H]1CN([C@H]2CC[C@H](n3cc4cc(NC(=O)c5ccc6cc(C#N)cnn56)c(C(C)(C)O)cc4n3)CC2)CCN1C1CCN(c2cc(F)c([C@H]3CCC(=O)NC3=O)c(F)c2)CC1", "unit_tag": "%", "Dmax": 95}
{"molecule": "COc1cc2nn(C3CCN(C4CCN(C(=O)C5CN(c6cc(F)c([C@H]7CCC(=O)NC7=O)c(F)c6)C5)CC4)CC3)cc2cc1NC(=O)c1cccc(C(F)(F)F)n1", "unit_tag": "%", "Dmax": 88}
{"molecule": "COc1cc2nn([C@H]3CC[C@H](NC(=O)C4CCN(c5ccc6c(c5)C(=O)N(C5CCC(=O)NC5=O)C6=O)CC4)CC3)cc2cc1NC(=O)c1cccc(C(F)(F)F)n1 (stereo partly shown)", "unit_tag": "%", "Dmax": 91}
{"molecule": "CC(C)(O)c1cc2nn([C@H]3CC[C@H](N4CCN(C5CCN(c6cc(F)c(C7CCC(=O)NC7=O)c(F)c6)CC5)CC4)CC3)cc2cc1NC(=O)c1ccc2cc(C#N)cnn12 (stereo partly shown)", "unit_tag": "%", "Dmax": 99}
{"molecule": "COC[C@H]1CN([C@H]2CC[C@H](n3cc4cc(NC(=O)c5ccc6cc(C#N)cnn56)c(C(C)(C)O)cc4n3)CC2)CCN1C(=O)C1CN(c2cc(F)c(N3CCC(=O)NC3=O)c(F)c2)C1", "unit_tag": "%", "Dmax": 97}
{"molecule": "CC(C)(O)c1cc2nn([C@H]3CC[C@H](N4CCN(C5CCN(c6ccc(C7CCC(=O)NC7=O)cc6)CC5)CC4)CC3)cc2cc1NC(=O)c1ccc2cc(C#N)cnn12 (stereo partly shown)", "unit_tag": "%", "Dmax": 97}

----------
Below, each of the molecules is paired with its reported Dmax value.
Biological target: IRAK4 (Homo sapiens, UniProt Q9NWZ3)
Construct: endogenous in cells; host or cells: Karpas299
Assay: IRAK4 Degradation Assay (Karpas299, HTRF/TR-FRET)
Assay type: cell-based
Conditions: Karpas-299 cells, 24 h treatment; maximum percentage of degradation; read-out: IRAK4 in Karpas-299 (24 h) Dmax (%)
Description: IRAK4 degradation was measured using a TR-FRET-based method (Degorce, François, et al. Current chemical genomics. 2009, 3: 22). […] IRAK4 level was quantitated using the HTRF kit as described by the manufacturer manual (Cisbio). FRET signals were measured using a PHERAstar FSX reader (BMG Labtech). […] The inhibition (degradation) percentage of the compound was calculated by the following equation: […]

{"molecule": "CC(C)(O)c1cc2nn([C@H]3CC[C@H](N4CCN(C(=O)C5CN(c6cnc(C7CCC(=O)NC7=O)c(F)c6)C5)CC4)CC3)cc2cc1NC(=O)c1ccc2cc(C#N)cnn12 (some centres unmarked) [Example 187]", "experimental_target": "IRAK4 (Homo sapiens, UniProt Q9NWZ3)", "Dmax (%)": 96}
{"molecule": "COC[C@@H]1CN(CC2CN(c3cc(F)c([C@H]4CCC(=O)NC4=O)c(F)c3)C2)CCN1[C@H]1CC[C@H](n2cc3cc(NC(=O)c4ccc5cc(C#N)cnn45)c(C(C)(C)O)cc3n2)CC1 [Example 326]", "experimental_target": "IRAK4 (Homo sapiens, UniProt Q9NWZ3)", "Dmax (%)": 100}
{"molecule": "CC(C)(O)c1cc2nn(C3CCN(C4CCN(C(=O)[C@@H]5CCN(c6cc(F)c([C@H]7CCC(=O)NC7=O)c(F)c6)C5)CC4)CC3)cc2cc1NC(=O)c1cccc(C(F)(F)F)n1 [Example 161]", "experimental_target": "IRAK4 (Homo sapiens, UniProt Q9NWZ3)", "Dmax (%)": 97}
{"molecule": "N#Cc1cnn2c(C(=O)Nc3cc4cn([C@H]5CC[C@H](N6CCN(CCc7cc(F)c([C@H]8CCC(=O)NC8=O)c(F)c7)CC6)CC5)nc4c4c3OC(F)(F)O4)ccc2c1 [Example 386]", "experimental_target": "IRAK4 (Homo sapiens, UniProt Q9NWZ3)", "Dmax (%)": 94}
{"molecule": "CC(C)(O)c1cc2nn([C@H]3CC[C@H](N4CCN([C@H]5C[C@H](c6ccc(N[C@@H]7CCC(=O)NC7=O)cc6)C5)CC4)CC3)cc2cc1NC(=O)c1ccc2cc(C#N)cnn12 [Example 272]", "experimental_target": "IRAK4 (Homo sapiens, UniProt Q9NWZ3)", "Dmax (%)": 96}

----------
molecular target: IRAK4 (Homo sapiens); construct: endogenous in cells; host or cells: Karpas299; assay: IRAK4 Degradation Assay (Karpas299, HTRF/TR-FRET); format: cell-based; details: Karpas-299 cells, 24 h treatment; read-out: IRAK4 in Karpas-299 (24 h) DC50
outcome_measure: DC50 (nM)

{"compound": "CC(C)(O)c1cc2nn(C3CCN([C@@H]4CCN(C(=O)C5CN(c6cc(F)c(N7CCC(=O)NC7=O)c(F)c6)C5)CC4(F)F)CC3)cc2cc1NC(=O)c1ccc2cc(C#N)cnn12 [Example 198]", "outcome_measure": "DC50", "value_operator": "=", "quantitative_result": 9}
{"compound": "CC(C)(O)c1cc2nn([C@H]3CC[C@H](N4CCN(C(=O)C5CN(c6cc(F)c([C@H]7CCC(=O)NC7=O)c(F)c6)C5)CC4)CC3)cc2cc1NC(=O)c1cnn2cc(C#N)cnc12 [Example 411]", "outcome_measure": "DC50", "value_operator": ">", "quantitative_result": 10000}
{"compound": "CC(C)(O)c1cc2nn(C3CCN(C4CCN(C(=O)[C@@H]5CCN(c6ccc(N7CCC(=O)NC7=O)cc6)C5)CC4)CC3)cc2cc1NC(=O)c1cccc(C(F)(F)F)n1 [Example 162]", "outcome_measure": "DC50", "value_operator": "=", "quantitative_result": 5.7}
{"compound": "COC[C@H]1CN([C@H]2CC[C@H](n3cc4cc(NC(=O)c5ccc6cc(C#N)cnn56)c(C(C)(C)O)cc4n3)CC2)CCN1C(=O)C1CN(c2cc(F)c(N3CCC(=O)NC3=O)c(F)c2)C1 [Example 315]", "outcome_measure": "DC50", "value_operator": "=", "quantitative_result": 0.6}
{"compound": "CC(C)(O)c1cc2nn([C@H]3CC[C@H](N4CCN(C(=O)C5CN(c6ccc(N7CCC(=O)NC7=O)cc6)C5)CC4)CC3)cc2cc1NC(=O)c1ccc2cc(C#N)cnn12 [Example 265]", "outcome_measure": "DC50", "value_operator": "=", "quantitative_result": 2.6}
{"compound": "C[C@@H]1CN(C2CN(c3cc(F)c([C@H]4CCC(=O)NC4=O)c(F)c3)C2)CCN1[C@H]1CC[C@H](n2cc3cc(NC(=O)c4ccc5cc(C#N)cnn45)c(C(C)(C)O)cc3n2)CC1 [Example 302]", "outcome_measure": "DC50", "value_operator": "=", "quantitative_result": 0.8}
{"compound": "COC[C@@H]1CN(C2CCN(c3ccc(C4CCC(=O)NC4=O)nc3C)CC2)CCN1[C@H]1CC[C@H](n2cc3cc(NC(=O)c4ccc5cc(C#N)cnn45)c(C(C)(C)O)cc3n2)CC1 (some centres unmarked) [Example 423]", "outcome_measure": "DC50", "value_operator": "=", "quantitative_result": 1.1}
{"compound": "CC(C)(O)c1cc2nn([C@H]3CC[C@H](N4CCN(C(=O)C5CCN(c6cc(F)c([C@H]7CCC(=O)NC7=O)c(F)c6)CC5)CC4)CC3)cc2cc1NC(=O)c1ccc2cc(C#N)cnn12 [Example 291]", "outcome_measure": "DC50", "value_operator": "=", "quantitative_result": 0.6}
{"compound": "NC(=O)c1nn([C@H]2CC[C@H](N3CCN(C4CC(c5ccc(N[C@@H]6CCC(=O)NC6=O)cc5)C4)CC3)CC2)cc1NC(=O)c1coc(-c2ccnc(NCC(F)(F)F)c2)n1 (some centres unmarked) [Example 9]", "outcome_measure": "DC50", "value_operator": "=", "quantitative_result": 2.5}
{"compound": "COC[C@H]1CN([C@H]2CC[C@H](n3cc4cc(NC(=O)c5ccc6cc(C#N)cnn56)c(C(C)(C)O)cc4n3)CC2)CCN1CCc1cc(F)c([C@H]2CCC(=O)NC2=O)c(F)c1 [Example 314]", "outcome_measure": "DC50", "value_operator": "=", "quantitative_result": 0.6}
{"compound": "COc1cc2nn([C@H]3CC[C@H](N4CCN(CCc5cc(F)c([C@H]6CCC(=O)NC6=O)c(F)c5)CC4)CC3)cc2cc1NC(=O)c1ccc2cc(C#N)cnn12 [Example 337]", "outcome_measure": "DC50", "value_operator": "=", "quantitative_result": 2.1}
{"compound": "CC(C)(O)c1cc2nn([C@H]3CC[C@H](CN4CCN(C5CCN(c6ccc7c(c6)C(=O)N(C6CCC(=O)NC6=O)C7=O)CC5)CC4)CC3)cc2cc1NC(=O)c1ccc2cc(C#N)cnn12 (some centres unmarked) [Example 436]", "outcome_measure": "DC50", "value_operator": "=", "quantitative_result": 10.8}
{"compound": "N#Cc1cnn2c(C(=O)Nc3cc4cn([C@H]5CC[C@H](N6CCN(C(=O)C7CN(c8cc(F)c([C@H]9CCC(=O)NC9=O)c(F)c8)C7)CC6)CC5)nc4c4c3OC(F)(F)O4)ccc2c1 [Example 384]", "outcome_measure": "DC50", "value_operator": "=", "quantitative_result": 2.2}
{"compound": "CC(C)(O)c1cc2nn([C@H]3CC[C@H](N4CCN(C5CCN(c6cc(F)c([C@H]7CCC(=O)NC7=O)c(F)c6)CC5)CC4)CC3)cc2cc1NC(=O)c1cccc(C(F)(F)F)n1 [Example 99]", "outcome_measure": "DC50", "value_operator": "=", "quantitative_result": 0.4}
{"compound": "COc1cc2nn([C@H]3CC[C@H](N4CCN(C(=O)C5CN(c6cc(F)c([C@H]7CCC(=O)NC7=O)c(F)c6)C5)CC4)CC3)cc2cc1C(=O)Nc1cnc2cccnn12 [Example 343]", "outcome_measure": "DC50", "value_operator": "=", "quantitative_result": 0.1}
{"compound": "CC(C)(O)c1cc2nn(C34CC(N5CCN(C(=O)[C@@H]6CCN(c7cc(F)c([C@H]8CCC(=O)NC8=O)c(F)c7)C6)CC5)(C3)C4)cc2cc1NC(=O)c1cccc(C(F)(F)F)n1 [Example 152]", "outcome_measure": "DC50", "value_operator": "=", "quantitative_result": 2.1}
{"compound": "CC(C)(O)c1cc2nn([C@H]3CC[C@H](N4CCN(CC5CCN(c6ccc7c(c6)CN(C6CCC(=O)NC6=O)C7=O)CC5)CC4)CC3)cc2cc1NC(=O)c1ccc2cc(C#N)cnn12 (some centres unmarked) [Example 353]", "outcome_measure": "DC50", "value_operator": "=", "quantitative_result": 0.8}
{"compound": "CC(C)(O)c1cc2nn([C@H]3CC[C@H](N4CCN(C(=O)N5CCN(c6ccc(C7CCC(=O)NC7=O)cc6)CC5)CC4)CC3)cc2cc1NC(=O)c1ccc2cc(C#N)cnn12 (some centres unmarked) [Example 292]", "outcome_measure": "DC50", "value_operator": "=", "quantitative_result": 1.8}
{"compound": "COc1cc(N2CC(C(=O)N3CCN([C@H]4CC[C@H](n5cc6cc(NC(=O)c7ccc8cc(C#N)cnn78)c(C(C)(C)O)cc6n5)CC4)CC3)C2)c(F)cc1N1CCC(=O)NC1=O [Example 258]", "outcome_measure": "DC50", "value_operator": "=", "quantitative_result": 2.6}
{"compound": "Cc1nc(C2CCC(=O)NC2=O)ccc1N1CC(N2CCN(C3CCC(n4cc5cc(NC(=O)c6ccc7cc(C#N)cnn67)c(C(C)(C)O)cc5n4)CC3)CC2)C1 (centres unmarked) [Example 426]", "outcome_measure": "DC50", "value_operator": "=", "quantitative_result": 5.5}
